- System: SW620 cells
- Assay remarks: Cell growth (sulforhodamine B), growing SW620 cells
- Format: cell-based
- Assay context: Homo sapiens, SW-620, 192 h, 8 days treatment, in the combination geraniol at IC30, read-out: IC50 5-FU, SW620
pIC50: −log10 of the molar value.
Experimental endpoint: pIC50

- O=c1[nH]cc(F)c(=O)[nH]1: 5.70

---

- Tested on: Caco-2 cells
- Assay remarks: Caco-2 cell growth with CPT-11 and geraniol
- Type: cell-based
- Assay context: Homo sapiens, 192 h; Caco-2, 8 days treatment; in the combination geraniol at IC10; read-out: IC50 CPT-11
- Method: Cells were seeded in 96-well plates and incubated for different times. Cell growth was stopped by addition of 50 μl of trichloroacetic acid (50%, v/v), and the protein content of each well was determined by staining with sulforhodamine B (Skehan et al., 1990): Absorbance was determined at 490 nm. The effect of various doses of CPT-11 alone or in combination with geraniol was determined after 8 days of treatment of Caco-2 cells. […]
Experimental endpoint: IC50

• CCc1c2c(nc3ccc(OC(=O)N4CCC(N5CCCCC5)CC4)cc13)-c1cc3c(c(=O)n1C2)COC(=O)[C@]3(O)CC [CPT-11, irinotecan, reference compound] = 700 nM

meta.source: patent US20070190191A1
